Where do these numbers come from? They come from PubChem BioAssay (NCI).

Test system: HS 578T breast
assay method text: NCI-60 one-dose screen, 48 h (100 = growth as untreated, 0 = no growth, -100 = all killed)
applied conditions: 10 µM unless noted
The panel holds about 83,000 compounds, 20% with a hit somewhere; the sample as a whole holds those more often.
Recorded measurements of growth, one per entry
Give the value, in units of %, as a plain number.

> print(dat)
                                   compound  value.reported
1  COc1cc(C)cc(-c2c(-c3cc(N4CC(O)C4)nc(-c4cccnc4)n3)cnn2C)c1            80.5
2  COCCNC(=O)Cc1cc(-c2ccc(Cl)cc2)n(-c2ccccc2)c1C             107
3  CCOC(=O)CC1CSC(N/N=C(/C)c2cccc(C(F)(F)F)c2)=N1 (stereo unspecified)             101
4             COC(=O)c1sc(-c2ccc(C)cc2)cc1O             101
5  O=C(O)/C=C/c1cn(-c2ccccc2)nc1-c1ccc(F)cc1            83.4

Attention now shifts to the item below.
Request: If you can, please state the reported growth value of CCCn1cnc2c(c1=N)C(c1ccc(Cl)cc1)c1sc3c(F)cccc3c1O2 (stereo unspecified) .
Result: 91.2

----------
Tested on: TK-10 renal
assay method text: NCI-60 one-dose screen, 48 h (100 = growth as untreated, 0 = no growth, -100 = all killed)
applied conditions: 10 µM unless noted
This is part of a sample that, as a whole, favours compounds with a hit. Of some 83,000 tested, about 20% had one in any assay.
Consider the cut-off 90%. If the recorded growth is strictly smaller, the label is MET; if not, the label is NOT MET.

> print(dat)
                                   compound  class.assignment
1  COc1cc2ncnc(Nc3ccc(S(=O)(=O)Nc4cc(C)on4)cc3)c2cc1OCCCN1CCOCC1           NOT MET
2  CN(Cc1ccccc1)c1nc(Cl)c(C2CC(c3ccc(Cl)cc3)=NN2c2cc(Cl)cc(Cl)c2)s1 (stereo unspecified)           NOT MET
3  CCCCCN(CCCCC)CC(O)c1c(Cl)ccc2ccccc12 (stereo unspecified)           NOT MET
4  COc1cc(CNC(=O)CCCC/C=C/C(C)C)ccc1OCc1cn(-c2ccc(C(F)(F)F)cc2)nn1           NOT MET

Pending compound:
Request: Please check: growth for N#CC1=C(N)Oc2c(ccc3ccccc23)C1c1cc2ccccc2n2nnnc12 (stereo unspecified) , strictly under 90% or not?
Result: MET

----------
System: UO-31 renal
assay method text: NCI-60 one-dose screen, 48 h (100 = growth as untreated, 0 = no growth, -100 = all killed)
applied conditions: 10 µM unless noted
The panel holds about 83,000 compounds, 20% with a hit somewhere; the sample as a whole holds those more often.
experimental endpoint: growth (%)
Kindly provide the numeric value in % only, without the unit symbol.

The cases that follow already have their growth on record.
> print(dat)
                                   compound  value.reported
1  CCCCCCC/C=N/NC(=O)c1ccc(-n2cc(-c3ccccc3)nn2)cc1              71
2  Cc1[nH]c(C2CC(c3ccc(C(F)(F)F)c(F)c3)=NN2C)c(C)c1C(=O)NCC(F)(F)F (stereo not drawn)              72

Field: next compound
Request: Requested read-out growth, target or system UO-31 renal, entry "CCOC(=O)c1c(C)n2c(=O)cc(C)c3c(OC(C)=O)c(OC(C)=O)cc1c32"
Result: 71
